Data provenance: paper PMC6744468

- STUDY TARGET: LC3B H27Y mutant (ITC sample) (human, UniProt Q9GZQ8 1-120, H27Y)
- TEST DETAILS: ITC; PCM1 LIR peptide 0.4 mM titrated into 0.025 mM LC3 or GABARAP protein in 21 steps; 25 °C; 50 mM Tris-HCl pH 7.4, 100 mM NaCl; one-site binding model
- CONDITION: both partners purified
ATTRIBUTE MEASURED: Kd (µM)
Numbers only, in µM.

Fill blank: measured Kd of the binder SDEEDFVKVEDLPLKLTIY (pericentriolar material 1 (PCM1), human, residues 1958-1976; core LIR FVKV; also called PCM1 LIR peptide; PCM LIR peptide; source: synthetic peptide, bought: GenScript Inc) [Human PCM1 LIR-contained peptide (residues 1958-1976)] is ____.
25
